The reported numbers originate from the kinase profiling compilation of Christmann-Franck et al. (2016).

kinase still bound, per cent of control reference
- tested.target: UniProt:P53350
- Sequence (P53350 whole entry, looked up): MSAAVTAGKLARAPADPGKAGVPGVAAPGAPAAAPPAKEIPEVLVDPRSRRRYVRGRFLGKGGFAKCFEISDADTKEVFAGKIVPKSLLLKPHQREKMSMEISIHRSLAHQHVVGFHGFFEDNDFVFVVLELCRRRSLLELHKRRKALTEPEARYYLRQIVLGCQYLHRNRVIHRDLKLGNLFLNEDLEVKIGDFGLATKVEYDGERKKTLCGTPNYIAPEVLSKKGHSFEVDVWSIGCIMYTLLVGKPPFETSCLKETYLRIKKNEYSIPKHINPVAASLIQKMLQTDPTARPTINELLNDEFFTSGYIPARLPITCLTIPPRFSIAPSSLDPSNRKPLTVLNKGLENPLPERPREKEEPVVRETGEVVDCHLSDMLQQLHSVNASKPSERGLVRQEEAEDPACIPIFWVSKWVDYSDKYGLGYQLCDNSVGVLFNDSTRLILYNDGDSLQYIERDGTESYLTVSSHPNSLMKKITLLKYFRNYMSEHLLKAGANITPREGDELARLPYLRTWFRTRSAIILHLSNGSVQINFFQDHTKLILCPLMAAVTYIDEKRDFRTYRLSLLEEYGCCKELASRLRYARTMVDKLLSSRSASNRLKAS
- test.protocol: KINOMEscan competition binding
- cond: compound 10.0 µM
Enter your answer as a number in %; do not include the unit.

CCOc1cc2ncc(C#N)c(Nc3ccc(OCc4ccccn4)c(Cl)c3)c2cc1NC(=O)/C=C/CN(C)C :: 57
O=C1Nc2ccc(I)cc2/C1=C/c1cc(Br)c(O)c(Br)c1 :: 100
O=C(O)c1ccc(Nc2ncc3c(n2)-c2ccc(Cl)cc2C(c2c(F)cccc2F)=NC3)cc1 :: 100
Cc1cc([C@@H](C)Nc2ccccc2C(=O)O)c2nc(N3CCOCC3)cc(=O)n2c1 :: 100
O=C(NOC[C@H](O)CO)c1ccc(F)c(F)c1Nc1ccc(I)cc1F :: 72

-- ask Recorded kinase still bound, per cent of control of "CCC(=O)N1CCN(c2ccc(-n3c(=O)ccc4cnc5ccc(-c6cnc7ccccc7c6)cc5c43)cc2C(F)(F)F)CC1" , please.
-- reply 85

-- ask Same lookup for "C=CC(=O)Nc1cccc(Nc2nc(N[C@H]3CC[C@H](N(C)C)CC3)nc3c2ncn3C(C)C)c1" , please.
-- reply 21

-- ask Same lookup for COc1cc(C(=O)NC2CCN(C)CC2)ccc1Nc1ncc2c(n1)N(C1CCCC1)C(C)CC(=O)N2C (centres undefined) , please.
-- reply 19

-- ask Same lookup for "CCCS(=O)(=O)Nc1ccc(F)c(C(=O)c2c[nH]c3ncc(-c4ccc(Cl)cc4)cc23)c1F" , please.
-- reply 100
